# Assay Overview: in vivo
# Parameters: species or system mice
# Run Conditions: mouse, im
Counter-ions that a name gives are not always drawn.
Endpoint Label: concentration at 1 h (µg/mL)
Write it as a number; the unit µg/mL goes unstated.

| Compound | concentration at 1 h, µg/mL |
| --- | --- |
| O=C(O)Cn1nnnc1SCC1=C(C(=O)O)N2C(=O)[C@@H](NC(=O)[C@H](NC(=O)c3cnc4ccc5nccnc5c4c3O)c3ccccc3)[C@H]2SC1 [TC-203, disodium salt] | 82 |
| Cc1nnc(SCC2=C(C(=O)O)N3C(=O)[C@@H](NC(=O)Cn4cnnn4)[C@H]3SC2)s1 [cefazolin sodium, reference compound] | 5.5 |

Note: attention shifts to another entry.
In: Sample O=C(O)Cn1nnnc1SCC1=C(C(=O)O)N2C(=O)[C@@H](NC(=O)[C@H](NC(=O)c3cnc4ccc5nccnc5c4c3O)c3ccc(O)cc3)[C@H]2SC1 [TC-403, disodium salt] — what was its concentration at 1 h?
Out: 62

* * *

Each record here notes measured concentration at 0.5 h.
# Assay Overview: in vivo
# Set-up: species or system mice
# Run Conditions: mouse, im
Counter-ions that a name gives are not always drawn.
Kindly provide the numeric value in µg/mL only, without the unit symbol.

| Compound | concentration at 0.5 h [µg/mL] |
| --- | --- |
| O=C(O)Cn1nnnc1SCC1=C(C(=O)O)N2C(=O)[C@@H](NC(=O)[C@H](NC(=O)c3cnc4ccc5nccnc5c4c3O)c3ccccc3)[C@H]2SC1 [TC-203, disodium salt] | 162 |
| O=C(O)Cn1nnnc1SCC1=C(C(=O)O)N2C(=O)[C@@H](NC(=O)[C@H](NC(=O)c3cnc4ccc5nccnc5c4c3O)c3ccc(O)cc3)[C@H]2SC1 [TC-403, disodium salt] | 180 |

Continue with the next compound.
In: Need concentration at 0.5 h, item Cc1nnc(SCC2=C(C(=O)O)N3C(=O)[C@@H](NC(=O)Cn4cnnn4)[C@H]3SC2)s1 [cefazolin sodium, reference compound]
Out: 42

* * *

The molecules listed here are annotated with their concentration at 2 h.
# Assay Overview: in vivo
# Design: species or system mice
# Run Conditions: mouse, im
Where a name gives a salt, the structure may show the parent alone.
Write the value in ng/mL as a bare number.

| Molecule | Endpoint Label | Unit Of Measurement | Quantitative Result |
| --- | --- | --- | --- |
| O=C(O)Cn1nnnc1SCC1=C(C(=O)O)N2C(=O)[C@@H](NC(=O)[C@H](NC(=O)c3cnc4ccc5nccnc5c4c3O)c3ccccc3)[C@H]2SC1 [TC-203, disodium salt] | concentration at 2 h | ng/mL | 32000 |

The record that follows has no concentration at 2 h shown yet.
In: Recorded concentration at 2 h for O=C(O)Cn1nnnc1SCC1=C(C(=O)O)N2C(=O)[C@@H](NC(=O)[C@H](NC(=O)c3cnc4ccc5nccnc5c4c3O)c3ccc(O)cc3)[C@H]2SC1 [TC-403, disodium salt] , please?
Out: 42000

* * *

# Assay Overview: in vivo
# Parameters: species or system mice
# Run Conditions: mouse, im
Counter-ions that a name gives are not always drawn.
Endpoint Label: concentration at 0.25 h (µg/mL)
// units = µg/mL; emit number, no label

Worked set:
| Compound | Unit Of Measurement | Quantitative Result |
| --- | --- | --- |
| O=C(O)Cn1nnnc1SCC1=C(C(=O)O)N2C(=O)[C@@H](NC(=O)[C@H](NC(=O)c3cnc4ccc5nccnc5c4c3O)c3ccc(O)cc3)[C@H]2SC1 [TC-403, disodium salt] | µg/mL | 92 |
| Cc1nnc(SCC2=C(C(=O)O)N3C(=O)[C@@H](NC(=O)Cn4cnnn4)[C@H]3SC2)s1 [cefazolin sodium, reference compound] | µg/mL | 62 |

Now take the following compound into account.
In: Need concentration at 0.25 h of O=C(O)Cn1nnnc1SCC1=C(C(=O)O)N2C(=O)[C@@H](NC(=O)[C@H](NC(=O)c3cnc4ccc5nccnc5c4c3O)c3ccccc3)[C@H]2SC1 [TC-203, disodium salt] , thanks.
Out: 150
